tgt: DYRK2 (human) (UniProt Q92630)
Sequence (Q92630 whole entry, looked up): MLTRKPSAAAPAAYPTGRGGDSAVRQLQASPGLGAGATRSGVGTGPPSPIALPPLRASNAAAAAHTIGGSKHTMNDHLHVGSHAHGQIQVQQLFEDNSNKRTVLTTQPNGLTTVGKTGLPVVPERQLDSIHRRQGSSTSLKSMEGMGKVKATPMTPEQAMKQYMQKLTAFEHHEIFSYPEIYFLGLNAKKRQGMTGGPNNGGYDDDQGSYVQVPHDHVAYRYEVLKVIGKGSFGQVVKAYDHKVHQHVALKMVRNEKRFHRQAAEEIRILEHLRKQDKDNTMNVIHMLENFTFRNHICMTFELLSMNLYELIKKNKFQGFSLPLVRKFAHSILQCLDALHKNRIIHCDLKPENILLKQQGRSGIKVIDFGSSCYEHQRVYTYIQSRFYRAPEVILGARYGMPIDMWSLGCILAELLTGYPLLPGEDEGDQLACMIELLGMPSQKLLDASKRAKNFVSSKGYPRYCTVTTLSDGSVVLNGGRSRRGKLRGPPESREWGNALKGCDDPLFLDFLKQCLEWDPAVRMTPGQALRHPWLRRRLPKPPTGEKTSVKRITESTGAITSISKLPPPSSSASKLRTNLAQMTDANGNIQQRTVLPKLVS
experimental-protocol: radiometric filter-binding kinase assay
condition-label: compound 1.0 µM
readout-label: residual activity (%)

Worked cases, residual activity given:
Cn1c(=O)c2c(ncn2C)n(C)c1=O = 87
NS(=O)(=O)OC[C@@H]1C[C@@H](n2ccc3c(N[C@H]4CCc5ccccc54)ncnc32)C[C@@H]1O = 93
C[C@H]1CCCC(=O)CCC/C=C/c2cc(O)cc(O)c2C(=O)O1 = 90
c1ccc2c(-c3cnn4cc(-c5ccc(N6CCNCC6)cc5)cnc34)ccnc2c1 = 107
C=C1C(=O)OC2C1CC/C(C)=C/CCC1(C)OC21 (stereo unspecified) = 113

(A) Cc1ccc(=O)n(-c2ccccc2)c1
(B) Cc1cc(NC(=O)c2cccc(NC(=O)/C=C/CN(C)C)c2)ccc1Nc1nccc(-c2cccnc2)n1
Query block: Just curious, which one has the larger residual activity reading, A or B ? Answer by quoting the chosen item's label.
Result block: A
(A: 107%, B: 72%)

Taken from the kinase profiling compilation of Christmann-Franck et al. (2016).
